Data provenance: patent US20060199856A1

IC50 by entry:
Target: DHODH (Rattus norvegicus)
Sequence (Q63707 whole entry): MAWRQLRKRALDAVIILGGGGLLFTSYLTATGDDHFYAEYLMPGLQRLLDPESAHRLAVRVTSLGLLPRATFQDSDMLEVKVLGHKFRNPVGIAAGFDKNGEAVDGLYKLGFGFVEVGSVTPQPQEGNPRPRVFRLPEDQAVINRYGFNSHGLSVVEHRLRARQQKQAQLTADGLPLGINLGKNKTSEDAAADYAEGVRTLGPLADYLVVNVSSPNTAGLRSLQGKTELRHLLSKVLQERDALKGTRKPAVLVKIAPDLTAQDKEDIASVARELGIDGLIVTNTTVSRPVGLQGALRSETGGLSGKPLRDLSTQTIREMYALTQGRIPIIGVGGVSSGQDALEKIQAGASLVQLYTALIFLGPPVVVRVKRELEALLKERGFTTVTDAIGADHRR
Measurement notes: Inhibition assay of DHODH activity (rat enzyme, head printed 'rate')
Type: biochemical
Study conditions: class symbols (in nM); read-out: rate IC50-Value

Example results:
Mol smiles | Target | IC50
O=C(O)C1=C(C(=O)Nc2cc(Br)c(OCc3cc(F)ccc3F)c(Br)c2)CCC1 | DHODH (Rattus norvegicus) | > 1500 nM
COc1ccc(-c2ccc(NC(=O)C3=C(C(=O)O)CCC3)cc2Cl)cc1 | DHODH (Rattus norvegicus) | < 800 nM
CCOc1cccc(-c2ccc(NC(=O)C3=C(C(=O)O)CCC3)c(F)c2)c1 | DHODH (Rattus norvegicus) | > 1500 nM
O=C(O)C1=C(C(=O)Nc2ccc(-c3ccccc3Cl)cc2)CCC1 | DHODH (Rattus norvegicus) | > 1500 nM

Value wanted: IC50 (DHODH (Rattus norvegicus)) of entry COc1ccccc1-c1ccc(OC(=O)C2=C(C(=O)O)CCC2)c(F)c1
< 800 nM

Query the reported IC50 for DHODH (Rattus norvegicus); item: COc1ccccc1-c1cc(Cl)c(NC(=O)C2=C(C(=O)O)CCC2)c(Cl)c1
800 to 1500 nM

Form field: IC50 recorded for COc1ccccc1-c1ccc(NC(=O)C2=C(C(=O)O)CCC2)cc1Cl with DHODH (Rattus norvegicus) (enter value)
< 800 nM

###

Target: recombinant human DHODH (Homo sapiens)
Construct: provided by Prof; M. Löffler, Marburg, Germany (gift, not purchased)
Sequence (Q02127 whole entry): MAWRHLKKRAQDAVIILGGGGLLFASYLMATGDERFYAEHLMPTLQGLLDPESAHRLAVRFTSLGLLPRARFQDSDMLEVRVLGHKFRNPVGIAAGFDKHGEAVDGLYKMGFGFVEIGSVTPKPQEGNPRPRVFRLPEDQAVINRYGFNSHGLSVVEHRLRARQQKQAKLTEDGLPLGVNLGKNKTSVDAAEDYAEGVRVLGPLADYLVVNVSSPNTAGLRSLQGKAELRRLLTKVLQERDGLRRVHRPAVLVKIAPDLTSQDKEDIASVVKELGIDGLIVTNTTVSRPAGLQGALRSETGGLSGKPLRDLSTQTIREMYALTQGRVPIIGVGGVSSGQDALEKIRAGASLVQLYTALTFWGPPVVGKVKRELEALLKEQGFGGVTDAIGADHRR
Measurement notes: Inhibition assay of DHODH activity (human enzyme)
Format: biochemical
Study conditions: recombinant human DHODH, numeric values; read-out: human IC50-Value
Measured quantity: pIC50
The value called pIC50 is obtained by taking minus log10 of the concentration in mol/L.

Some solved entries appear below for comparison.
Mol smiles | Target | pIC50
COc1ccc(Nc2ccc(NC(=O)C3=C(C(=O)O)CCC3)cc2)cc1 | recombinant human DHODH (Homo sapiens) | 6.00
O=C(O)C1=C(C(=O)Nc2c(F)c(F)cc(F)c2F)CCC1 | recombinant human DHODH (Homo sapiens) | 5.89
O=C(O)C1=C(C(=O)Nc2c(F)c(F)c(C(F)(F)F)c(F)c2F)CCC1 | recombinant human DHODH (Homo sapiens) | 5.80
O=C(O)C1=C(C(=O)Nc2ccc(OCc3ccccc3)cc2)CCC1 | recombinant human DHODH (Homo sapiens) | 6.46
O=C(O)C1=C(C(=O)Nc2ccc3c(c2)S(=O)(=O)c2cc(NC(=O)C4=C(C(=O)O)CCC4)ccc2C3)CCC1 | recombinant human DHODH (Homo sapiens) | 5.96

Fill in: pIC50 of O=C(O)C1=C(C(=O)Nc2ccc(C(F)(F)F)cc2)CCC1 is ___
5.80

###

Target: recombinant murine DHODH (Mus musculus)
Construct: provided by Prof; M. Löffler, Marburg, Germany (gift, not purchased)
Measurement notes: Inhibition assay of DHODH activity (murine enzyme)
Assay type: biochemical
Study conditions: class symbols (in nM)
Measured quantity: IC50

For COc1ccccc1-c1ccc(OC(=O)C2=C(C(=O)O)CCC2)c(F)c1 , what is its reported IC50?
800 to 1500 nM

###

Target: recombinant murine DHODH (Mus musculus, UniProt O35435)
Construct: provided by Prof; M. Löffler, Marburg, Germany (gift, not purchased)
Sequence (O35435 whole entry): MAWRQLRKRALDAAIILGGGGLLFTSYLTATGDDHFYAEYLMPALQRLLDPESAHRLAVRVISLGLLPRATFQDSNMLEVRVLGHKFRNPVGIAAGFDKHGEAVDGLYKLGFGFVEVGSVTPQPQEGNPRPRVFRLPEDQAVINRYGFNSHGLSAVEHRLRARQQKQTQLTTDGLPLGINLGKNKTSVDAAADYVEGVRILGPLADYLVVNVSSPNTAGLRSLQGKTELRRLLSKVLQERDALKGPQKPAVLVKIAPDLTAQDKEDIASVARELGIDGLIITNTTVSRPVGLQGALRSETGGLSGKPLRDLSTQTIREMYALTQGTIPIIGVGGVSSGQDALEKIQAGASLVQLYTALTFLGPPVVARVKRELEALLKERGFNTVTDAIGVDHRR
Measurement notes: Inhibition assay of DHODH activity (murine enzyme)
Assay type: biochemical
Study conditions: numeric values or words
Experimental: The standard assay mixture contained 50 μM decyclo ubichinone, 100 μM dihydroorotate, 60 μM 2,6-dichloroindophenol, as well as 20 mU DHODH. The volume activity of the recombinant enzyme used was 30 U/ml. Measurements were conducted in 50 mM TrisHCl (150 mM KCl, 0,1% Triton X-100, pH. 8,0) at 30° C. in a final volume of 1 ml. The components were mixed, and the reaction was started by adding dihydroorotate. […]
Measured quantity: IC50 (µM)
Hi! Could you send only the number? It should be in µM, unit omitted.

So what does the record say about IC50 for O=C(O)C1=C(C(=O)Nc2ccc(C(F)(F)F)cc2)CCC1 [Compound 08] ?
0.93

// query IC50 value for entry O=C(O)C1=C(C(=O)Nc2ccc(-c3ccccc3)cc2)CCC1 [Compound 02]
4

Any idea what IC50 was measured for O=C(O)C1=C(C(=O)Nc2ccc(OCc3ccccc3)cc2)CCC1 [Compound 01] ?
8.2

For the compound shown here, O=C(O)C1=C(C(=O)Nc2cccc(C(F)(F)F)c2)CCC1 [Compound 09] , give the reported IC50.
55
